tested.system: T1, His9-hMSR1 (human MSR1 extracellular domain) (Homo sapiens, UniProt P21757)
T1 construct: human MSR1 extracellular domain expressed with a N-terminal nonahistidine tag; His9 (nonahistidine) (N); purchased R&D Systems 2708-MS
T1 sequence (P21757 77-451 limits assumed): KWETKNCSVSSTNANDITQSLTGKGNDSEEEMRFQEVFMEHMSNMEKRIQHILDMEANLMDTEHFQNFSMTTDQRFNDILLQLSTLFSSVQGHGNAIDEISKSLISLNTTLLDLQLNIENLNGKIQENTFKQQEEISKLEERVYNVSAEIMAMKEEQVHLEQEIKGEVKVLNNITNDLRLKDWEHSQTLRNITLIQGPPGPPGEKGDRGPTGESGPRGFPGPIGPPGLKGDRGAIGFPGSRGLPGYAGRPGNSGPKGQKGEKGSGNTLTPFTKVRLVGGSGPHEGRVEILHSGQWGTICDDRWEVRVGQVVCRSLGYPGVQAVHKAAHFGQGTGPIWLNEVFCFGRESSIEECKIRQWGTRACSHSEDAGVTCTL
test.description: Biacore surface plasmon resonance binding kinetics of anti-MSR1 mAbs, antibody-capture format
condition.summary: 37° C.; analyte His9-hMSR1; antibody-capture format; NB = no binding observed
measurement.name: ka (M⁻¹ s⁻¹)

{"columns": ["molecule", "readout.units", "observed.measurement"],
 "data": [
  ["H1H21227N-N297Q: \"modified versions of 21227N (H1H21227N-N297Q and H1H21227N-N297D)\"; anti-MSR1 antibody \"with a N297Q single point mutation\" (antibody, V domains shown) VH: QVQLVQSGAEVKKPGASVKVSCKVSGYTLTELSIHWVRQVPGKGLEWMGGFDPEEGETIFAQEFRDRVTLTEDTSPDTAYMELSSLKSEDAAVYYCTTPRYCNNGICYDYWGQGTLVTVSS VL: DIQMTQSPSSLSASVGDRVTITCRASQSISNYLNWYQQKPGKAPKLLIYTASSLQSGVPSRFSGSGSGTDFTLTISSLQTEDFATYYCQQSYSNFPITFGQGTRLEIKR", "M⁻¹ s⁻¹", "2.67e+06"]
]}
